FYI, the data here is from patent US7169773B2.

target: human MC4R (Homo sapiens); assay: Reporter Gene Assay (CHO-6×CRE-luc+ reporter cell lines, luciferase); type: cell-based; details: 4 h, percentage of the fold stimulation in the NDP-αMSH control (1×10^−7 M NDP-αMSH); CHO-6×CRE-luc+ cells, human MC4R; read-out: % of MSH
Sequence (P32245 whole entry): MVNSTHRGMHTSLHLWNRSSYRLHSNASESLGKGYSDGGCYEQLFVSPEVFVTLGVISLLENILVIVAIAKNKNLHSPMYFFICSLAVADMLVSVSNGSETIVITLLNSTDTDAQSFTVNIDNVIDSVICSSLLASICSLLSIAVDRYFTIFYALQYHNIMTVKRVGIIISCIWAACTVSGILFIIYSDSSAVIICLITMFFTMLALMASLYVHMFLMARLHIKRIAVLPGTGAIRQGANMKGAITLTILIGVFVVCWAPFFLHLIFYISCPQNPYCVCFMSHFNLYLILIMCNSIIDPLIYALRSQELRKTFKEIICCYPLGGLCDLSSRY
The entries below come with measured Emax values attached.
Please give a number only; it is taken to be in %.

molecule="O=C(CN1C(=O)C(Cc2n[nH]c3ccccc23)C(=O)N(c2ccccc2)c2ccccc21)N1CCCCc2ccccc21 (racemic)" units_text=% assay_value=60

Data request: # Emax lookup, item COc1cccc2c1CCCCN2C(=O)CN1C(=O)C(Cc2n[nH]c3ccccc23)C(=O)N(c2ccccc2)c2ccccc21 (racemic)
Data returned: 45

Data request: Find the recorded Emax belonging to COc1cccc2c1CCCCN2C(=O)CN1C(=O)[C@@H](Cc2n[nH]c3c2CCCC3)C(=O)N(c2ccccc2)c2ccccc21 and report it.
Data returned: 41

Data request: Quick one: Emax for Cc1cc(C)c2c(c1)N(C(=O)CN1C(=O)C(Cc3n[nH]c4ccccc34)C(=O)N(c3ccccc3)c3ccccc31)CCCC2 (racemic) ?
Data returned: 47

Data request: GET /values?readout=Emax&item= COc1cccc2c1CCCCN2C(=O)CN1C(=O)[C@@H](Cc2n[nH]c3ccccc23)C(=O)N(c2ccccc2)c2ccccc21
Data returned: 44

Data request: // returns reported Emax for input COc1ccc(N(C(=O)CN2C(=O)C(Cc3n[nH]c4ccccc34)(OC)C(=O)N(c3cccnc3)c3ccccc32)C(C)C)cc1 (racemic)
Data returned: 74

Data request: Any idea what its Emax is? The molecule is O=C(CN1C(=O)C(Cc2n[nH]c3cc(F)ccc23)C(=O)N(c2ccccc2)c2ccccc21)N1CCCCc2ccccc21 (stereo not shown)
Data returned: 52

Data request: Reported Emax, molecule COC1(Cc2n[nH]c3ccccc23)C(=O)N(CC(=O)N2CCCCc3ccccc32)c2ccccc2N(c2ccccc2)C1=O (stereo not shown) : ____
Data returned: 59

Data request: What value of Emax has been recorded for this entry: Cc1cc(C)c2c(c1)N(C(=O)CN1C(=O)[C@@H](Cc3n[nH]c4c3CCCC4)C(=O)N(c3ccccc3)c3ccccc31)CCCC2
Data returned: 35

Data request: Would you mind telling me what Emax value was observed for COc1ccc2c(c1)CCCCN2C(=O)CN1C(=O)C(Cc2n[nH]c3ccccc23)C(=O)N(c2ccccc2)c2ccccc21 (stereo not shown) ?
Data returned: 42

----------
pEC50 values for the compounds below.
target: human MC4R (Homo sapiens); experiment: Reporter Gene Assay (CHO-6×CRE-luc+ reporter cell lines, luciferase); conditions: CHO-6×CRE-luc+ reporter cells expressing human MC4R; 4 h at 37° C.; luciferase activity
Remember, pEC50 is on a log scale: it is -log10 of the molar concentration.

Data request: Endpoint output: pEC50 of COc1cccc2c1CCCCN2C(=O)CN1C(=O)[C@@H](Cc2n[nH]c3c2CCCC3)C(=O)N(c2ccccc2)c2ccccc21 [Example 7] . Value?
Data returned: 6.80

Data request: Which pEC50 value belongs to COc1ccc(N(C(=O)CN2C(=O)C(Cc3n[nH]c4ccccc34)(OC)C(=O)N(c3cccnc3)c3ccccc32)C(C)C)cc1 (single isomer, unassigned) [Example 9] ?
Data returned: 6.80

Data request: If you can, please state the reported pEC50 value of COc1cccc2c1CCCCN2C(=O)CN1C(=O)[C@@H](Cc2n[nH]c3ccccc23)C(=O)N(c2ccccc2)c2ccccc21 [Example 5] .
Data returned: 6.55

Data request: Given the entry COC1(Cc2n[nH]c3ccccc23)C(=O)N(CC(=O)N2CCCCc3ccccc32)c2ccccc2N(c2ccccc2)C1=O (stereo not drawn) [Example 11] , report its measured pEC50.
Data returned: 6.95

Data request: // returns reported pEC50 for input COc1ccc(N(C(=O)CN2C(=O)C(Cc3n[nH]c4ccccc34)(OC)C(=O)N(c3cccnc3)c3ccccc32)C(C)C)cc1 (racemic) [Example 8]
Data returned: 6.60

Data request: # pEC50 lookup, item COc1ccc2c(c1)CCCCN2C(=O)CN1C(=O)C(Cc2n[nH]c3ccccc23)C(=O)N(c2ccccc2)c2ccccc21 (stereo not drawn) [Example 2]
Data returned: 6.54

----------
target: human MC4R (Homo sapiens); assay: Reporter Gene Assay (CHO-6×CRE-luc+ reporter cell lines, luciferase); details: CHO-6×CRE-luc+ reporter cells expressing human MC4R; 4 h at 37° C.; luciferase activity
Classify: Y when EC50 is strictly less than 200 nM; N when EC50 is not.

molecule="O=C(CN1C(=O)C(Cc2n[nH]c3ccccc23)C(=O)N(c2ccccc2)c2ccccc21)N1CCCCc2ccccc21 (racemic) [Example 1]" qualitative_label=N
molecule="COc1cccc2c1CCCCN2C(=O)CN1C(=O)C(Cc2n[nH]c3ccccc23)C(=O)N(c2ccccc2)c2ccccc21 (racemic) [Example 4]" qualitative_label=Y
molecule="O=C(CN1C(=O)C(Cc2n[nH]c3cc(F)ccc23)C(=O)N(c2ccccc2)c2ccccc21)N1CCCCc2ccccc21 (stereo not drawn) [Example 12]" qualitative_label=Y

Data request: Does the reported EC50 of Cc1cc(C)c2c(c1)N(C(=O)CN1C(=O)[C@@H](Cc3n[nH]c4c3CCCC4)C(=O)N(c3ccccc3)c3ccccc31)CCCC2 [Example 6] stay below 200 nM?
Data returned: N

Data request: Decide: EC50 of Cc1cc(C)c2c(c1)N(C(=O)CN1C(=O)C(Cc3n[nH]c4ccccc34)C(=O)N(c3ccccc3)c3ccccc31)CCCC2 (racemic) [Example 3] strictly below 200 nM?
Data returned: Y
